target: human RET on cells (MCF7/SRE-Luc; HEK293/hGFRα3/hRET/SRE-Luc; HEK293/hGFRα1/hRET/SRE-Luc) (human), P07949; assay: cell-based or functional assay
propertyName: MCF7/SRE-Luc Avg % Blocking (%)
Reply with just the number (in %).

Challenge: What value of MCF7/SRE-Luc Avg % Blocking has been reported for the following binder? H4H8062P (antibody, human IgG4, V domains shown) VH: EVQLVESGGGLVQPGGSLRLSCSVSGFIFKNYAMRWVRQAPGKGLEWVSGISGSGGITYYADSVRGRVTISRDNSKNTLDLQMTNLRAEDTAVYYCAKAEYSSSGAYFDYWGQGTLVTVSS VL: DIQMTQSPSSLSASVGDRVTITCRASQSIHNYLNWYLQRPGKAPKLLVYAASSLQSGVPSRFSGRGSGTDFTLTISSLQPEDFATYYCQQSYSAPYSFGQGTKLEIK
Response given: 100

Challenge: What value of MCF7/SRE-Luc Avg % Blocking has been reported for the following binder? H4H8067P (antibody, human IgG4, V domains shown) VH: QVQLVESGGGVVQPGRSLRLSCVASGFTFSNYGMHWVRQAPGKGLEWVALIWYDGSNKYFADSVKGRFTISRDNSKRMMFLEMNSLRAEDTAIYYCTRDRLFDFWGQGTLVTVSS VL: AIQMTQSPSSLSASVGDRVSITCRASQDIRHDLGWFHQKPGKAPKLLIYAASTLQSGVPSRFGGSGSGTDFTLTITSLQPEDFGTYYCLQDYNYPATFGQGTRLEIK
Response given: 91

Challenge: What value of MCF7/SRE-Luc Avg % Blocking has been reported for the following binder? H2M7086N (antibody, mouse IgG2, V domains shown) VH: QVQLVESGGGVVQPGRSLRLSCVVSGFTFSNYGMHWVRQGPGRGLEWLALIWYDGSDKYYAESVRGRFTISRDNSKNTVYLQMNSLRAEDTAMYYCTRDRIFDYWGQGTLVTVSS VL: AIQMTQSPSSLSASVGDRVTITCRASQDIRNDLGWYQHNPGKAPNLLIYAASTLQIGVPSRFRGSGSGTDFTLTISSLQPEDFATYYCLQDFDYPLSFGGGTKVEIR
Response given: 100
